Recorded values, source PubChem BioAssay AID1037.

test-protocol: NSCLC 2 Cell Viability Secondary Assay for qHTS Assay for Epigenetic Modulators
conditions: NSCLC 2 viability, MTS absorbance, 4 days
Activity calls are given as the source filed them. Calls follow the shape of the full dose curve.
assay-endpoint: Potency

molecule: CC(C)C(=O)NC(c1ccco1)c1cc([N+](=O)[O-])c2cccnc2c1O (stereo unspecified)
assay-endpoint: Potency
measured-value: 6000 nM (active)

molecule: O=Nc1ccc(O)c2ncccc12
assay-endpoint: Potency
measured-value: 1000 nM (active)

molecule: CN1C(=S)SC(c2ccccc2)N(C)C1c1ccccc1 (stereo unspecified)
assay-endpoint: Potency
measured-value: inactive

molecule: CC(/C=C/C(=O)NO)=C\[C@@H](C)C(=O)c1ccc(N(C)C)cc1
assay-endpoint: Potency
measured-value: 40 nM (active)

molecule: O=C(CSc1cccc2cccnc12)NCc1ccccc1
assay-endpoint: Potency
measured-value: inactive

molecule: CC(C)C(=O)NC(c1ccco1)c1ccc2cccnc2c1O (stereo unspecified)
assay-endpoint: Potency
measured-value: 800 nM (active)
